test system: MALME-3M melanoma; test: NCI-60 one-dose screen, 48 h (100 = growth as untreated, 0 = no growth, -100 = all killed); details: 10 µM unless noted
This is part of a sample that, as a whole, favours compounds with a hit. Of some 83,000 tested, about 20% had one in any assay.
Measured growth, listed per entry.
The answer is to be given in %; state only the numeric part.

Fill in reported growth for this entry: Cn1c(=O)c2c(ncn2CC(=O)Nc2ccc(S(N)(=O)=O)cc2)n(C)c1=O 118

Return value of growth for input C=C(C)[C@@H]1CC[C@]2(C(=O)N3CCN(CC)CC3)CC[C@]3(C)[C@H](CC[C@@H]4[C@@](C)(CCC(=O)N5CCN(CC)CC5)[C@H](C(=C)C)CC[C@]43C)[C@@H]12 , no commentary. 43.2

Give growth for the following compound: O=C(Nc1ccc(/C=C2\SC(=O)N(Cc3ccc(OC(F)(F)F)cc3)C2=O)cc1)c1ccc(Cl)c([N+](=O)[O-])c1 98.4

* * *

system: HOP-92 NSCLC; assay: NCI-60 one-dose screen, 48 h (100 = growth as untreated, 0 = no growth, -100 = all killed); conditions: 10 µM unless noted
About 83,000 compounds went through this panel and 20% of them were active in at least one assay; those are over-represented in the sample as a whole.
Below: a set of entries, each annotated with reported growth.
Field format: number, assumed %, no unit text.

Record excerpt, results attached:
> print(dat)
                                   compound  units  endpoint.result
1  CC(Cc1ccco1)C(=O)NC(N)=O (stereo not drawn)      %              109
2  CCCCCC1CCCCN1C(=O)OCC (stereo not drawn)      %             75.9
3  C#CCn1c2c(c3ccccc31)C[C@]1(C)[C@H]3CC[C@@H]4[C@@H]5C(=CCC[C@H]5C(=C)C)CC[C@@]4(C)[C@]3(C)CC[C@H]1C2(C)C      %              124
4  COc1cc2nc(Cl)nc(Nc3cccc(C(=O)/C=C/c4ccc(Br)cc4)c3)c2cc1OC      %             83.6
5  O=C(/C=C\c1ccc2c(c1)OCO2)/C=C/c1ccc2c(c1)OCO2      %             87.8
6  COc1ccc(OCC(CO)N2CCN(c3ccccc3)CC2)cc1 (stereo not drawn)      %             81.2

Consider the compound Fc1ccc(Nc2nnc(-c3ccc(Cl)cc3)o2)cc1 and give its recorded growth. 95.5

Given the compound CC(C)=CCC/C(C)=C/CC/C(C)=C/CSC[C@H](NC(=O)CCCCCN1CCN(C)CC1)C(=O)NC1CCCCCC1 , write its reported growth. 32.6

* * *

tested on: SNB-75 CNS; experiment: NCI-60 one-dose screen, 48 h (100 = growth as untreated, 0 = no growth, -100 = all killed); details: 10 µM unless noted
This is part of a sample that, as a whole, favours compounds with a hit. Of some 83,000 tested, about 20% had one in any assay.
# maps each entry to its growth
Give the value in % but do not write % after it.

Smiles notation	Assayed system	growth [%]
C=C1C(=O)O[C@H]2[C@H]1CC/C(COC(=O)NCc1cc3ccccc3[nH]1)=C\CC[C@@]1(C)O[C@@H]21	SNB-75 CNS	62

Recall and state the measured growth for O=C1c2cccc3cccc(c23)C(=O)N1CC#Cc1ccc2c3c(cccc13)C(=O)N(CCO)C2=O . 69.9

Dear colleague, please send me the reported growth for CN1CCN(CC#CCn2c3c(c4ccccc42)C[C@]2(C)[C@H]4CC[C@@H]5[C@H]6[C@H]7OC(=O)[C@@]6(CCC7(C)C)CC[C@@]5(C)[C@]4(C)CC[C@H]2C3(C)C)CC1 when you can. 113

This collection of values is drawn from PubChem BioAssay (NCI).
